test: AUC (0 to infinity) in Sprague-Dawley rat at 5 mg/kg, iv by LC-MS/MS analysis; type: ADME, organism-based; parameters: dose 5 mg/kg, route iv; details: in vivo
readoutLabel: AUC(0-inf)
Give your result as the value with the unit written after it.

Data request: # return recorded AUC(0-inf) for entry "O=C(CN1CCN(c2ccc(OC(F)(F)F)cc2)CC1)Nc1ccc(-c2nc3ccccn3c2CN2CCN(c3ccccc3)CC2)cc1"
Data returned: 676 ng·h/mL

* * *

experiment: Metabolic stability in rat liver microsomes assessed as intrinsic clearance at 80 ug/ml preincubated for 5 mins followed by NADPH addition and measured upto 120 mins by LC-MS/MS analysis; format: ADME, Microsome; conditions: dose 80 µg/ml, time < 125 min, read-out: CLH
readoutLabel: microsomal CLint at 80 ug/ml (µL/min/mg)
Supply the numeric figure in µL/min/mg, leaving out any unit text.

Data request: # return recorded microsomal CLint at 80 ug/ml for entry "O=C(CN1CCN(c2ccc(OC(F)(F)F)cc2)CC1)Nc1ccc(-c2nc3ccccn3c2CN2CCN(c3ccccc3)CC2)cc1"
Data returned: 2.27

Just for reference, ChEMBL document CHEMBL5380807 is where these values come from.
